Values compiled from paper PMC9781101.

Non-standard residues stand in square brackets, D forms with d. Residues, ends and D or L forms follow the SMILES beside them. pY = N[C@@H](Cc1ccc(OP(=O)(O)O)cc1)C(=O)O
Form: system (STAT4 SH2 domain (human STAT4 amino acids 136 to 705) (Homo sapiens, UniProt Q14765)), quantity (pIC50), values below.
API: returns pIC50 as number; meaning -log10 of concentration in mol/L.

[[record]]
compound = "CC(=O)N[C@@H](Cc1ccc(OP(=O)(O)O)cc1)C(=O)N[C@@H](CC(C)C)C(=O)N1CCC[C@H]1C(=O)N[C@@H](CCC(N)=O)C(=O)N[C@H](C(=O)N[C@H](C(N)=O)C(C)C)[C@@H](C)O"
observed_result = 5.90

[[record]]
compound = "CC[C@H](C)[C@H](NC(=O)[C@H](CC(N)=O)NC(=O)[C@H](CCC(N)=O)NC(=O)[C@@H]1CCCN1C(=O)[C@H](CC(C)C)NC(=O)[C@H](Cc1ccc(OP(=O)(O)O)cc1)NC(=O)CNC(C)=O)C(=O)N[C@@H](CC(=O)O)C(=O)O [Ac-GpYLPQNID] (Ac-G[pY]LPQNID-OH)"
observed_result = 6.31

[[record]]
compound = "CC(C)C[C@H](NC(=O)[C@@H](NC(=O)[C@H](Cc1c[nH]cn1)NC(=O)[C@@H]1CCCN1C(=O)[C@H](CCCCN)NC(=O)[C@H](CC(=O)O)NC(=O)[C@H](Cc1ccc(OP(=O)(O)O)cc1)NC(=O)CN)C(C)C)C(=O)O [GpYDKPHVL] (H-G[pY]DKPHVL-OH)"
observed_result = 4.50


Consider now this further compound.
Request: Report pIC50 from STAT4 SH2 domain (human STAT4 amino acids 136 to 705) (Homo sapiens, UniProt Q14765) testing of CC(C)C[C@H](NC(=O)[C@H](Cc1c[nH]c2ccccc12)NC(=O)[C@H](CCCCN)NC(=O)[C@H](CC(=O)O)NC(=O)[C@H](CC(C)C)NC(=O)[C@@H](NC(=O)[C@H](CC(C)C)NC(=O)[C@H](Cc1ccc(OP(=O)(O)O)cc1)NC(=O)[C@@H](NC(=O)[C@@H](N)CC(=O)O)[C@@H](C)O)C(C)C)C(=O)O [DTpYLVLDKWL] (H-DT[pY]LVLDKWL-OH)
Response: 5.38
